B1: tRNA (parent)
chain: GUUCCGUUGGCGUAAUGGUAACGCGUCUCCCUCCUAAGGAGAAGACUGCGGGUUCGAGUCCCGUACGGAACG

# Variants of: B1
# measurementProtocol: yeast fitness relative to wild type (ratio to wild type); higher = fitter; tRNA-Arg(CCU), competitive growth, 37 C, YPD
Fewer inactive variants are shown than the library holds.
Use 0.7 as the dividing line for yeast fitness, with the line itself on the true side and lower values as false.

Examples from the recorded data:
In: Evaluate A20G C30U A45G : yeast fitness at minimum 0.7?
Out: false

In: Evaluate G6C C30G : yeast fitness at minimum 0.7?
Out: false

In: Evaluate U7G G25C C60A : yeast fitness at minimum 0.7?
Out: false

In: Evaluate A14C C22G A37C : yeast fitness at minimum 0.7?
Out: false

In: Evaluate C11A A15G A40G : yeast fitness at minimum 0.7?
Out: true

Shifting focus to the variant that follows.
In: Evaluate C29U C31U U54G G68C : yeast fitness at minimum 0.7?
Out: false
